system: A498; experiment: NCI tumour cell line growth inhibition, 48 h
Active and inactive are the calls of the source. Rule as the data show it: active = GI50 up to about 1.1 µM and inactive = higher.
Returns: one label drawn from y = active, n = inactive

Q: Dear colleague, could you share the recorded outcome for `CN(C)CCCNC(=O)N/N=C/c1ccc(O)cc1` when you have a moment?
Result: n

Q: Dear colleague, could you share the recorded outcome for `N=C(Nc1nc(-c2ccccn2)cc2ccccc12)c1ccccn1` when you have a moment?
Result: y

Q: Dear colleague, could you share the recorded outcome for `C[C@@H]1Nc2cc(NC(=O)OCCF)nc(N)c2N=C1c1ccccc1` when you have a moment?
Result: n

Q: Dear colleague, could you share the recorded outcome for `Nc1ccc2c(c1)C(=O)c1ccccc1-2` when you have a moment?
Result: n

Q: Dear colleague, could you share the recorded outcome for `Cc1cc(C)c2c(O)cc(-c3ccc(Cl)cc3)nc2n1` when you have a moment?
Result: n

Q: Dear colleague, could you share the recorded outcome for `CC(C)=CCC1=C(OCC(=O)O)C(=O)c2ccccc2C1=O` when you have a moment?
Result: n

Q: Dear colleague, could you share the recorded outcome for `C=CC(=O)NCCC(=O)OCn1cc(F)c(=O)[nH]c1=O` when you have a moment?
Result: y

Q: Dear colleague, could you share the recorded outcome for `O=[N+]([O-])/C(Cl)=C(\Sc1ccccc1)C(Cl)=C(Cl)Cl` when you have a moment?
Result: n

Q: Dear colleague, could you share the recorded outcome for `CC(C)(C)C(=O)CP(=O)(O)O` when you have a moment?
Result: n

Q: Dear colleague, could you share the recorded outcome for `C=CCN(c1cc(O)c2c(c(C)cn2S(=O)(=O)c2ccccc2)c1[N+](=O)[O-])S(C)(=O)=O` when you have a moment?
Result: n

Q: Dear colleague, could you share the recorded outcome for `N#Cc1c(-c2ccccc2)nc(-c2ccccc2)sc1=S` when you have a moment?
Result: n

Q: Dear colleague, could you share the recorded outcome for `CCOC(=O)/C(O)=C(/c1n[nH]c(=O)c2ccccc12)[N+](=O)[O-]` when you have a moment?
Result: n

Q: Dear colleague, could you share the recorded outcome for `CC[C@@]1(OP(=O)(O)O)C(=O)OCc2c1cc1n(c2=O)Cc2cc3ccccc3nc2-1` when you have a moment?
Result: y

Q: Dear colleague, could you share the recorded outcome for `COC(=O)[C@H](Cc1ccccc1)NC(=O)N(CCN(CCC#N)C(=O)N[C@H](C(=O)OC)C(C)C)c1ccccc1` when you have a moment?
Result: n

Q: Dear colleague, could you share the recorded outcome for CCOC1OC(C)(C=C(C#N)C#N)CCC1C (configuration not stated) when you have a moment?
Result: n

Q: Dear colleague, could you share the recorded outcome for `C/C(=N\NC(=S)Nc1ccc([N+](=O)[O-])cc1)c1nc2cccnc2[nH]1` when you have a moment?
Result: n

Q: Dear colleague, could you share the recorded outcome for `Nc1cc2c3c(cccc3c1)NC2=O` when you have a moment?
Result: n

Q: Dear colleague, could you share the recorded outcome for `COc1cc(Cl)c2c3c(c(C(=O)c4ccccc4)oc13)CCC2` when you have a moment?
Result: n

Q: Dear colleague, could you share the recorded outcome for O/N=C1/C2CC3CC1(c1ccccc1)CC(/C3=N/O)/C2=N\O (configuration not stated) when you have a moment?
Result: n

Q: Dear colleague, could you share the recorded outcome for NC(=S)N/N=C1\C(=O)N(CCc2ccccc2)C(=O)C1C(=O)NCCc1ccccc1 (configuration not stated) when you have a moment?
Result: n

Q: Dear colleague, could you share the recorded outcome for `Cc1ccccc1/N=N/c1ccc(N/N=C2/CCCNC2=O)c(C)c1` when you have a moment?
Result: n

Q: Dear colleague, could you share the recorded outcome for COC(=O)C(NC(=O)C(CC(=O)OC(C)(C)C)NC(=O)OC(C)(C)C)C(O)c1ccccc1 (configuration not stated) when you have a moment?
Result: n

The values you see were collected from ChEMBL document CHEMBL1201862.
